Origin of values: ChEMBL document CHEMBL1121453

target: Dopamine receptor; assay: Inhibition of [3H]spiroperidol binding to dopamine receptor from rat striatum membranes; assay type: cell membranes, Membrane
# maps each entry to its Ki
assay readout: Ki (µM)

[[record]]
compound = "COc1ccc(CC2NCCc3cc(OC)c(O)cc32)cc1O (configuration not stated)"
system_tested = "Dopamine receptor"
assay_readout = "Ki"
unit_abbreviation = "µM"
comparator = "="
measured_number = 3.8

[[record]]
compound = "COc1ccc(C[C@H]2NCCc3cc(OC)c(O)cc32)cc1O"
system_tested = "Dopamine receptor"
assay_readout = "Ki"
unit_abbreviation = "µM"
comparator = "="
measured_number = 30

[[record]]
compound = "Oc1ccc(CC2NCCc3cc(O)c(O)cc32)cc1O (configuration not stated)"
system_tested = "Dopamine receptor"
assay_readout = "Ki"
unit_abbreviation = "µM"
comparator = "="
measured_number = 10

[[record]]
compound = "COc1cc(C[C@@H]2NCCc3cc(O)c(O)cc32)cc(OC)c1OC [TRETOQUINOL]"
system_tested = "Dopamine receptor"
assay_readout = "Ki"
unit_abbreviation = "µM"
comparator = "="
measured_number = 5

[[record]]
compound = "Oc1ccc(C[C@H]2NCCc3cc(O)c(O)cc32)cc1O"
system_tested = "Dopamine receptor"
assay_readout = "Ki"
unit_abbreviation = "µM"
comparator = "="
measured_number = 35

[[record]]
compound = "COc1ccc(C[C@@H]2NCCc3cc(OC)c(O)cc32)cc1O"
system_tested = "Dopamine receptor"
assay_readout = "Ki"
unit_abbreviation = "µM"
comparator = "="
measured_number = 1.5

[[record]]
compound = "COc1cc2c(cc1O)C(Cc1ccc(O)c(O)c1)NCC2 (configuration not stated)"
system_tested = "Dopamine receptor"
assay_readout = "Ki"
unit_abbreviation = "µM"
comparator = "="
measured_number = 4.5

[[record]]
compound = "COc1cc(CC2(C(=O)O)NCCc3cc(O)c(O)cc32)ccc1O (configuration not stated)"
system_tested = "Dopamine receptor"
assay_readout = "Ki"
unit_abbreviation = "µM"
comparator = ">"
measured_number = 100

[[record]]
compound = "Oc1ccc(C[C@@H]2NCCc3cc(O)c(O)cc32)cc1O"
system_tested = "Dopamine receptor"
assay_readout = "Ki"
unit_abbreviation = "µM"
comparator = "="
measured_number = 2

[[record]]
compound = "Oc1cc(Br)c(CC2NCCc3cc(O)c(O)cc32)cc1O (configuration not stated)"
system_tested = "Dopamine receptor"
assay_readout = "Ki"
unit_abbreviation = "µM"
comparator = "="
measured_number = 1.5

[[record]]
compound = "COc1cc(CC2NCCc3cc(O)c(O)cc32)ccc1O (configuration not stated)"
system_tested = "Dopamine receptor"
assay_readout = "Ki"
unit_abbreviation = "µM"
comparator = "="
measured_number = 5

[[record]]
compound = "O=C(O)C1(Cc2ccc(O)c(O)c2)NCCc2cc(O)c(O)cc21 (configuration not stated)"
system_tested = "Dopamine receptor"
assay_readout = "Ki"
unit_abbreviation = "µM"
comparator = ">"
measured_number = 100

